- test target: FLT1 (human)
- test: radiometric filter-binding kinase assay
- conditions: compound 10.0 µM
test readout: residual activity (%)

See these solved cases before continuing.
>  <item smiles>
COc1cc(C(=O)N2CCOCC2)c(F)cc1Nc1ncc(C(F)(F)F)c(NC2CC2)n1

>  <test readout>
residual activity

>  <numeric result>
14

$$$$
>  <item smiles>
O=C(NOC[C@H](O)CO)c1ccc(F)c(F)c1Nc1ccc(I)cc1Cl

>  <test readout>
residual activity

>  <numeric result>
39

$$$$
>  <item smiles>
NCC(=O)Nc1ccc(-n2nc(C(F)(F)F)cc2-c2ccc3c(ccc4ccccc43)c2)cc1

>  <test readout>
residual activity

>  <numeric result>
89

$$$$

a: Cc1cc(SCc2sc(-c3ccc(C(F)(F)F)cc3)nc2C)ccc1OCC(=O)O
b: CC(C)(C#N)c1ccc(N2C(=O)OCc3cnc4ccc(-c5cnc6ccccc6c5)cc4c32)cc1
c: COc1cc2ncn(-c3cc(OCc4ccccc4S(C)(=O)=O)c(C#N)s3)c2cc1OC
d: O=c1c(O)c(-c2ccc(O)c(O)c2)oc2cc(O)c(O)c(O)c12
## Input Arrange these 4 compounds in increasing order of residual activity. Present the labels in the sequence the task asks for.
## Output d, c, a, b
(d: 7%, c: 23%, a: 74%, b: 107%)
